# TEST_METHOD_NOTES: ACEA_AR_agonist_AUC_viability: ACEA Biosciences xCELLigence Real-Time Cell Analysis on Androgen Receptor Agonism for Viability (AID 2283775)
Records with an inconclusive call do not appear. The source made the active and inactive calls. The calls were made as follows: active = hit-call score of the fitted dose curve at least 0.9, where 1 is the maximum; inconclusive = response in the unintended direction; inactive = score below 0.9.
Answer with one of the outcomes true (1) for active, false (0) for inactive

Task item: Which outcome did this test record for the compound CCC[CH2][Sn]([Cl])([Cl])[CH2]CCC ?
Reply: true (1)

Task item: Which outcome did this test record for the compound O=C(NC(=O)c1c(F)cccc1F)Nc1cc(Cl)c(OC(F)(F)C(F)C(F)(F)F)cc1Cl (centres undefined) ?
Reply: true (1)

Task item: Which outcome did this test record for the compound CC(=Cc1ccccc1)[N+](=O)[O-] ?
Reply: true (1)

Task item: Which outcome did this test record for the compound O=c1[nH]c(=O)n(Cl)c(=O)n1Cl ?
Reply: false (0)

Task item: Which outcome did this test record for the compound CCOP(=S)(OCC)O/N=C(\C#N)c1ccccc1 ?
Reply: false (0)

Task item: Which outcome did this test record for the compound COCCl ?
Reply: false (0)

Task item: Which outcome did this test record for the compound CC(C)O.CC(C)O.OCCN(CCO)CCO.OCCN(CCO)CCO.[Ti] ?
Reply: false (0)

Task item: Which outcome did this test record for the compound CCOCn1c(-c2ccc(Cl)cc2)c(C#N)c(Br)c1C(F)(F)F ?
Reply: true (1)

Task item: Which outcome did this test record for the compound N#CCC#N ?
Reply: false (0)

Task item: Which outcome did this test record for the compound COc1ccc(N)cc1 ?
Reply: false (0)

Task item: Which outcome did this test record for the compound O=[N+]([O-])c1ccc(Cl)c([N+](=O)[O-])c1 ?
Reply: true (1)

Task item: Which outcome did this test record for the compound N#CS ?
Reply: false (0)

Task item: Which outcome did this test record for the compound CCCCCCCCCCCCN(C)C ?
Reply: false (0)

Task item: Which outcome did this test record for the compound CNC(=O)O/N=C/C(C)(C)S(C)(=O)=O ?
Reply: false (0)

Task item: Which outcome did this test record for the compound CCN(CCO)CCO ?
Reply: false (0)

Task item: Which outcome did this test record for the compound CCCCCCCCCCCCOS(=O)(=O)O ?
Reply: true (1)

Task item: Which outcome did this test record for the compound COc1nn(C(=O)NS(=O)(=O)c2ccccc2OC(F)(F)F)c(=O)n1C ?
Reply: false (0)

Task item: Which outcome did this test record for the compound Clc1cccc(Cl)c1Cl ?
Reply: false (0)

Task item: Which outcome did this test record for the compound CCCCCCCCCCCCc1cccc(S(=O)(=O)O)c1 ?
Reply: true (1)

====

# Read-out: HGF (gene 3082)
# TEST_METHOD_NOTES: LTEA_HepaRG_HGF: Life Technologies and Expression Analysis (LTEA) Assay for Hepatocyte Growth Facto (HGF) using HepaRG (AID 2283505)
# EXPERIMENTAL_SETUP: mRNA level, 48 h; actives raise or lower the signal
Calls of active or inactive are those of the source. Rule for the calls: active = hit-call score of the fitted dose curve at least 0.9, where 1 is the maximum; inactive = score below 0.9.
MEASURED_PARAMETER: outcome

Illustrative cases are given below, each with its answer.
O=C(N[C@H]1CN2CCC1CC2)c1ccc2c(c1)OCCO2 inactive
N#Cc1cccnc1 inactive
CC(C)O.CC(C)O.OCCN(CCO)CCO.OCCN(CCO)CCO.[Ti] inactive
CN(C)C(=S)S inactive
Cc1cc(C)cc(C)c1 inactive
Clc1cccc(Cl)c1 inactive
Clc1cccc(Cl)c1Cl inactive
OCCN(CCO)CCO inactive

Let's switch to this compound now.
Task item: Please look up its outcome: Oc1cc(Cl)c(Cl)cc1Cl
Reply: inactive

====

# TEST_METHOD_NOTES: IUF_NPC4_neurite_length_120hr: Leibniz Research Institute for Environmental Medicine (IUF) 120-hour Neuronal Morphology Assay for Neurite Length (NPC4) (AID 2284302)
Calls of active or inactive are those of the source. Rule for the calls: active = hit-call score of the fitted dose curve at least 0.9, where 1 is the maximum; inactive = score below 0.9.
Answer with one of the outcomes active, inactive

Task item: Which outcome did this test record for the compound CS(=O)(=O)c1ccc(C(=O)C2C(=O)CCCC2=O)c(Cl)c1COCC(F)(F)F ?
Reply: inactive

Task item: Which outcome did this test record for the compound CC1(C)[C@H](C(=O)O[C@H](C#N)c2cccc(Oc3ccccc3)c2)[C@@H]1/C=C(\Cl)C(F)(F)F ?
Reply: inactive

Task item: Which outcome did this test record for the compound Cc1ccccc1OP(=O)(Oc1ccccc1C)Oc1ccccc1C ?
Reply: inactive

Task item: Which outcome did this test record for the compound CC(C)[C@@H](Nc1ccc(C(F)(F)F)cc1Cl)C(=O)OC(C#N)c1cccc(Oc2ccccc2)c1 (stereo partly drawn) ?
Reply: inactive

Task item: Which outcome did this test record for the compound CCOCn1c(-c2ccc(Cl)cc2)c(C#N)c(Br)c1C(F)(F)F ?
Reply: active

Task item: Which outcome did this test record for the compound Cc1cc(C(F)(C(F)(F)F)C(F)(F)F)ccc1NC(=O)c1cccc(I)c1C(=O)NC(C)(C)CS(C)(=O)=O ?
Reply: inactive

Task item: Which outcome did this test record for the compound O=S1OC[C@@H]2[C@H](CO1)[C@]1(Cl)C(Cl)=C(Cl)[C@@]2(Cl)C1(Cl)Cl (stereo partly drawn) ?
Reply: inactive

Task item: Which outcome did this test record for the compound CNC(=O)CSP(=O)(OC)OC ?
Reply: inactive

====

# TEST_METHOD_NOTES: UKN2_HCS_IMR90_cell_viability: Viability Assessment in the University of Konstanz (UKN) Leist Lab Neural Crest Cell Migration Assay in human induced IMR90 Pluripotent Stem Cells (UKN2) (AID 2284233);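 also: viability of neural crest cells differentiated from IMR90 iPSC measured by calcein-AM fluorescence imaging; cells exposed to compound for 24 h after a 24 h migration phase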
Active and inactive are the calls of the source. The calls were made as follows: active = hit-call score of the fitted dose curve at least 0.9, where 1 is the maximum; inactive = score below 0.9.
Answer with one of the outcomes 1.0 = active, 0.0 = inactive

Task item: Which outcome did this test record for the compound Cc1ccccc1OP(=O)(Oc1ccccc1C)Oc1ccccc1C ?
Reply: 1.0

Task item: Which outcome did this test record for the compound OC(Cc1ccccc1Cl)(Cn1[nH]cnc1=S)C1(Cl)CC1 (centres undefined) ?
Reply: 1.0

Task item: Which outcome did this test record for the compound O=S1OC[C@@H]2[C@H](CO1)[C@]1(Cl)C(Cl)=C(Cl)[C@@]2(Cl)C1(Cl)Cl (some centres undefined) ?
Reply: 0.0

Task item: Which outcome did this test record for the compound CNC(=O)CSP(=O)(OC)OC ?
Reply: 0.0

====

# TGT: Cellular tumor antigen p53 (Homo sapiens) (UniProt P04637)
# Sequence (P04637 whole entry, looked up): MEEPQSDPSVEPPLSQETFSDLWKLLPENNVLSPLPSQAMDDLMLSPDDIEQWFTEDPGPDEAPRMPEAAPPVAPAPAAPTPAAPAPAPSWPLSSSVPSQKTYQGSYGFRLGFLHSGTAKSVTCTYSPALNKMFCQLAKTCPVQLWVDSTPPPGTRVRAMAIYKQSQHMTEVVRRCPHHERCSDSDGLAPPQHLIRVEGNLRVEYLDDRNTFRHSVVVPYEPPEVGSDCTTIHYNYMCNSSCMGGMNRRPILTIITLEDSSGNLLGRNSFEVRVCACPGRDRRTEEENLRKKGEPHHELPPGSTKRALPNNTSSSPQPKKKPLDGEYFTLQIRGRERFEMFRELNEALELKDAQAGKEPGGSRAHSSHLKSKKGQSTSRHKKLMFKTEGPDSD
# TEST_METHOD_NOTES: TOX21_p53_BLA_p4_ratio: Tox21 HCT-116 p53 Agonism Beta-lactamase Assay, Ratio, Phase 4 (AID 2283601)
Records with an inconclusive call do not appear. Activity calls are given as the source filed them. Rule for the calls: active = hit-call score of the fitted dose curve at least 0.9, where 1 is the maximum; inconclusive = response in the unintended direction; inactive = score below 0.9.
Answer with one of the outcomes 1 for active, 0 for inactive

Task item: Which outcome did this test record for the molecule OC[P+](CO)(CO)CO ?
Reply: 0

Task item: Which outcome did this test record for the molecule C#C[C@]1(O)CC[C@H]2[C@@H]3CCC4=CC(=O)CC[C@]4(C)[C@H]3CC[C@@]21C ?
Reply: 0

Task item: Which outcome did this test record for the molecule CC(c1ccc(O)cc1)c1ccc(O)cc1 ?
Reply: 0

Task item: Which outcome did this test record for the molecule CCCCCCCCCCCCCCC(Br)C(=O)O (stereo not drawn) ?
Reply: 0

Task item: Which outcome did this test record for the molecule CCCCCCCCCCCCBr ?
Reply: 0

Task item: Which outcome did this test record for the molecule C=CC(=O)OCC(COC(=O)C=C)(COC(=O)C=C)COC(=O)C=C ?
Reply: 1

Task item: Which outcome did this test record for the molecule O=C(NC(=O)c1c(F)cccc1F)Nc1cc(Cl)c(Oc2ncc(C(F)(F)F)cc2Cl)c(Cl)c1 ?
Reply: 1

Task item: Which outcome did this test record for the molecule CC(C)[N+](=O)[O-] ?
Reply: 0

Task item: Which outcome did this test record for the molecule C=CCN=C=S ?
Reply: 0

Task item: Which outcome did this test record for the molecule CCN(CC)C(=O)C(Cl)=C(C)OP(=O)(OC)OC ?
Reply: 0

Task item: Which outcome did this test record for the molecule O=C(O)CC(O)(CC(=O)O)C(=O)O ?
Reply: 0

Task item: Which outcome did this test record for the molecule O=NN1CCCCCC1 ?
Reply: 0

Task item: Which outcome did this test record for the molecule O=[N+]([O-])c1cc([As](=O)(O)O)ccc1O ?
Reply: 0

Task item: Which outcome did this test record for the molecule Cc1cc(C(C)(C)c2ccc(O)c(C)c2)ccc1O ?
Reply: 1

Task item: Which outcome did this test record for the molecule O=C(CCl)Nc1ccccc1 ?
Reply: 0

Task item: Which outcome did this test record for the molecule O=C(NC(=O)c1c(F)cccc1F)Nc1cc(Cl)c(F)c(Cl)c1F ?
Reply: 0

Task item: Which outcome did this test record for the molecule CC(C=O)Cc1ccc2c(c1)OCO2 (stereo not drawn) ?
Reply: 0

Task item: Which outcome did this test record for the molecule Clc1cc(C(Cl)(Cl)Cl)cnc1Cl ?
Reply: 0

Task item: Which outcome did this test record for the molecule O=S(=O)(c1ccc(Cl)cc1)c1cc(Cl)c(Cl)cc1Cl ?
Reply: 0

Task item: Which outcome did this test record for the molecule CC(C)CP(=S)(S)CC(C)C ?
Reply: 0

Task item: Which outcome did this test record for the molecule BrCc1ccc(Br)cc1 ?
Reply: 0

Task item: Which outcome did this test record for the molecule OC(c1ccc(Cl)cc1)(c1ccc(Cl)cc1)c1cccnc1 ?
Reply: 1

Task item: Which outcome did this test record for the molecule O=C1c2ccccc2C(=O)C1C(=O)C(c1ccccc1)c1ccc(Cl)cc1 (stereo not drawn) ?
Reply: 0

Task item: Which outcome did this test record for the molecule COC(=O)c1cc(Oc2ccc(Cl)cc2Cl)ccc1[N+](=O)[O-] ?
Reply: 0

Task item: Which outcome did this test record for the molecule Cc1cc(Cl)ccc1O ?
Reply: 0

Task item: Which outcome did this test record for the molecule N#CCCC(Br)(C#N)CBr (stereo not drawn) ?
Reply: 0

Task item: Which outcome did this test record for the molecule Clc1cnc(Oc2ccc(Oc3ncc(Cl)cc3Cl)cc2)c(Cl)c1 ?
Reply: 0

Task item: Which outcome did this test record for the molecule COc1ccc(N)cc1 ?
Reply: 0
